# credit: the NIST ThermoML archive (doi:10.1021/je4003256)

measurement.context: 333.15 K; 101.33 kPa; Liquid; Pulse-echo method
speed of sound values, listed per item
The reply should contain only the number, in m/s.

Consider the compound COC(=O)c1ccccc1O [methyl 2-hydroxybenzoate] and give its recorded speed of sound.
1285.4

Look up and report measured speed of sound for this entry: Cc1ccccc1O
1382.8

In one line, give reported speed of sound of the entry Cc1ccc(O)cc1 .
1377.4

// fetch speed of sound given entry Cc1cccc(O)c1
1372.9

Using known records, supply speed of sound for Oc1ccccc1
1391.4

Identify the reported speed of sound for the following entry. C=CCc1ccc(O)c(OC)c1 [2-hydroxy-5-allylanisole]
1352.8

Note down speed of sound recorded for COc1ccccc1O
1394.6

----------
measurement.context: 298.15 K; 101.33 kPa; Liquid; Vibrating tube method
± gives the expanded uncertainty stated by the source.
property.measured: mass density
State the value, then name its unit.

Cc1ccc(O)cc1    1030.25 ± 0.9 kg/m3
COc1ccccc1O    1128.96 ± 0.34 kg/m3
Cc1ccccc1O    1041.41 ± 0.26 kg/m3
COC(=O)c1ccccc1O [methyl 2-hydroxybenzoate]    1179.34 ± 0.38 kg/m3
Cc1cccc(O)c1    1029.91 ± 0.25 kg/m3

In the following, a different compound is considered.
Identify measured mass density corresponding to C=CCc1ccc(O)c(OC)c1 [2-hydroxy-5-allylanisole]
1062.06 ± 0.28 kg/m3

----------
measurement.context: 323.15 K; 101.33 kPa; Liquid; Pulse-echo method
Numbers after ± are expanded uncertainties.
property.measured: speed of sound

Some compounds with recorded speed of sound:
Cc1cccc(O)c1 [3-methylphenol]    1403.9 ± 1.2 m/s
Oc1ccccc1 [phenol]    1422.1 ± 1.3 m/s
Cc1ccccc1O [2-methylphenol]    1417.7 ± 1.3 m/s
COc1ccccc1O [2-methoxyphenol]    1432.4 ± 1.3 m/s
C=CCc1ccc(O)c(OC)c1 [2-hydroxy-5-allylanisole]    1388.2 ± 1.2 m/s
COC(=O)c1ccccc1O [methyl 2-hydroxybenzoate]    1320.4 ± 1.2 m/s

Next compound, speed of sound to be filled in.
Write down speed of sound measured for item Cc1ccc(O)cc1 [4-methylphenol]
1408.7 ± 2.1 m/s

----------
measurement.context: 293.15 K; 101.33 kPa; Liquid; Vibrating tube method
Numbers after ± are expanded uncertainties.
Listing of entries alongside the reported mass density.

As a guide, the following entries are already answered.
Cc1cccc(O)c1 [3-methylphenol]    1033.84 ± 0.26 kg/m3
Cc1ccc(O)cc1 [4-methylphenol]    1034.09 ± 0.91 kg/m3
COC(=O)c1ccccc1O [methyl 2-hydroxybenzoate]    1184.33 ± 0.38 kg/m3

Hello, please tell me recorded mass density for this one: Cc1ccccc1O [2-methylphenol]
1045.77 ± 0.27 kg/m3

Give reported mass density value for COc1ccccc1O [2-methoxyphenol]
1133.81 ± 0.34 kg/m3

Tell us which mass density value is on record for C=CCc1ccc(O)c(OC)c1 [2-hydroxy-5-allylanisole]
1066.48 ± 0.28 kg/m3

----------
measurement.context: 303.15 K; 101.33 kPa; Liquid; Pulse-echo method
speed of sound reference
I only need the number, in m/s, no unit after it.

Examples with answers:
Cc1ccccc1O    1488.2
Cc1ccc(O)cc1    1471.4
COc1ccccc1O    1509.3
Cc1cccc(O)c1    1466.2
COC(=O)c1ccccc1O [methyl 2-hydroxybenzoate]    1392.3

State, in one line, measured speed of sound of C=CCc1ccc(O)c(OC)c1 [2-hydroxy-5-allylanisole]
1460.3
